Target chain: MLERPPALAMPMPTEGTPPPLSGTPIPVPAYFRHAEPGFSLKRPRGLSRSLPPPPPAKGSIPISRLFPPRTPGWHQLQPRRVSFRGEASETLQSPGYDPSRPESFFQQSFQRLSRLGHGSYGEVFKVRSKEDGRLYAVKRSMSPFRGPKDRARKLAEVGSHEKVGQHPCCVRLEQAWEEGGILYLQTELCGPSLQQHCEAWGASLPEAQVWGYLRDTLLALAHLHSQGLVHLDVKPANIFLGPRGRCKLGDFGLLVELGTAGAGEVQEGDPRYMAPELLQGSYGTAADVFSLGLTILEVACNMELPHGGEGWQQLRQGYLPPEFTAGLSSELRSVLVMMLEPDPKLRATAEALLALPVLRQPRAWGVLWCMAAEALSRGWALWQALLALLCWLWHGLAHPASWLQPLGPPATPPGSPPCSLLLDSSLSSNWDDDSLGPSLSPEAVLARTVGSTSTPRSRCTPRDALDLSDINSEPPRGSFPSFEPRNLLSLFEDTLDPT
Please provide measured IC50 for the entries that follow.

Dear colleague, could you please provide IC50 for the compounds listed below?
1. Nc1c(-c2cccc3[nH]ncc23)cc(-c2cccc(OC3CCOCC3)c2)c2nc(-c3ccncc3)[nH]c(=O)c12
2. Nc1c(-c2cccc3[nH]ncc23)cc(Br)c2nc(-c3ccc(N4CCC5(CC4)COC5)nc3)[nH]c(=O)c12
3. Nc1ccc(-c2nc3c(Br)cc(-c4cccc5[nH]ncc45)c(N)c3c(=O)[nH]2)cn1
4. Nc1c(-c2cccc3[nH]ncc23)cc(-n2cccn2)c2nc(-c3ccncc3)[nH]c(=O)c12
5. Nc1c(-c2cccc3[nH]ncc23)cc(-c2nccs2)c2nc(-c3ccc(CN4CCOCC4)cc3)[nH]c(=O)c12

["4 nM", "10 nM", "4 nM", "4 nM", "8 nM"]
